Test system: Wilson strain house flies
Type: in vivo, house fly (susceptible Wilson strain)
Conditions: in vivo
Endpoint: Contact Synergistic Ratio, Carbaryl (LC50 insecticide alone / LC50 with synergist)

{"Smiles entry": "C#CCOCc1c(Cl)cccc1Cl", "Recorded value": 300}
{"Smiles entry": "C#CCON=Cc1cccc([N+](=O)[O-])c1", "Recorded value": 270}
{"Smiles entry": "C#CCOCc1c(Cl)ccc(Cl)c1Cl", "Recorded value": 120}
{"Smiles entry": "C#CCON=C(C)c1ccc(Cl)cc1", "Recorded value": 177}
{"Smiles entry": "C#CCn1nc(Cl)c2ccc([N+](=O)[O-])cc21", "Recorded value": 53}
{"Smiles entry": "C#CCOCc1ccc(Cl)c(Cl)c1Cl", "Recorded value": 200}
